system: Klebsiella aerogenes DSM 30053; assay: fold change of Cadaverine concentration vs plate DMSO controls (fold change (ratio)); higher = more amine produced, active = hit call of the paper (significant change in both replicates, either direction); settings: incubation time: 27 h, anaerobic, 37 °C
Where a name gives a salt, the structure may show the parent alone.
measurement type: fold change of Cadaverine concentration

>>> print(df.to_string())
                                   compound  reported
0  O=C(CCCCCCC(=O)Nc1ccccc1)NO [Vorinostat] (20 µM)     0.967
1  O=c1[nH]c(=O)n([C@H]2C[C@H](O)[C@@H](CO)O2)cc1I [Idoxuridine] (20 µM)         1
2  O=C(O)[C@H]1/C(=C/CO)O[C@@H]2CC(=O)N21 [Clavulanate potassium salt] (20 µM)     0.998
3  COc1ccc(NS(=O)(=O)c2ccc(N)cc2)nn1 [Sulfamethoxypyridazine] (20 µM)       1.1
4  N=C(N)NS(=O)(=O)c1ccc(N)cc1 [Sulfaguanidine] (20 µM)      1.05
5  CN(C)c1nc(N(C)C)nc(N(C)C)n1 [Altretamine] (20 µM)         1
6  Nc1nc2c(ncn2COCCO)c(=O)[nH]1 [Acyclovir] (20 µM)      1.05
7  CC(C)(c1ccc(O)cc1)c1ccc(O)cc1 [Bisphenol A] (20 µM)     0.985
8  Cc1nnc(NS(=O)(=O)c2ccc(N)cc2)s1 [Sulfamethizole] (20 µM)     0.995

* * *

test system: Escherichia coli IAI1; test: fold change of Cadaverine concentration vs plate DMSO controls (fold change (ratio)); higher = more amine produced, active = hit call of the paper (significant change in both replicates, either direction); conditions: incubation time: 27 h, anaerobic, 37 °C
Structures can show the parent of a compound that is named as a salt.
In this section we review reported fold change of Cadaverine concentration values for a set of compounds.
measurement type: fold change of Cadaverine concentration

                                   compound  reported
0  CC1CCc2cc(F)cc3c(=O)c(C(=O)O)cn1c23 (stereo not drawn) [Flumequine] (20 µM)     0.209
1  CN(Cc1ccc(C(C)(C)C)cc1)Cc1cccc2ccccc12 [Butenafine hydrochloride] (20 µM)      1.02
2  O=C1Cc2cc(CCN3CCN(c4nsc5ccccc45)CC3)c(Cl)cc2N1 [Ziprasidone hydrochloride monohydrate] (20 µM)      1.08
3  CC(C)N1CCN(c2ccc(OCC3COC(Cn4cncn4)(c4ccc(Cl)cc4Cl)O3)cc2)CC1 (stereo not drawn) [Terconazole] (20 µM)     0.989
4  Cc1cccn2c(=O)c(-c3nnn[nH]3)cnc12 [Pemirolast potassium] (20 µM)     0.992
5  OCCN(CCO)c1nc(N2CCCCC2)c2nc(N(CCO)CCO)nc(N3CCCCC3)c2n1 [Dipyridamole] (20 µM)         1
6  CN1CCC[C@@H]1CCO[C@](C)(c1ccccc1)c1ccc(Cl)cc1 [Clemastine fumarate] (20 µM)      1.12
7  CC(C(=O)O)c1cccc(Oc2ccccc2)c1 (stereo not drawn) [Fenoprofen calcium salt dihydrate] (20 µM)      1.03

* * *

test system: Klebsiella aerogenes DSM 30053; test: fold change of Cadaverine concentration vs plate DMSO controls (fold change (ratio)); higher = more amine produced, active = hit call of the paper (significant change in both replicates, either direction); conditions: incubation time: 27 h, anaerobic, 37 °C
Counter-ions that a name gives are not always drawn.
measurement type: fold change of Cadaverine concentration

molecule	reported
NCc1ccccc1CC(=O)N[C@@H]1C(=O)N2C(C(=O)O)=C(CSc3nnnn3CC(=O)O)CS[C@H]12 [Ceforanide] (20 µM)	1.07
CCOc1nc2cccc(C(=O)O)c2n1Cc1ccc(-c2ccccc2-c2nnn[nH]2)cc1 [Candesartan] (20 µM)	1.01
C=C[C@H]1CN2CC[C@H]1C[C@@H]2[C@@H](O)c1ccnc2ccc(OC)cc12 [Quinidine hydrochloride monohydrate] (20 µM)	0.987
CO[C@H]1/C=C/O[C@@]2(C)Oc3c(C)c(O)c4c(O)c(c5c(nc6cc(C)ccn65)c4c3C2=O)NC(=O)/C(C)=C\C=C\[C@H](C)[C@H](O)[C@@H](C)[C@@H](O)[C@@H](C)[C@H](OC(C)=O)[C@@H]1C [Rifaximin] (20 µM)	1.04
CC(C)C[C@H](NC(=O)[C@@H](O)[C@H](N)Cc1ccccc1)C(=O)O [Ubenimex] (20 µM)	0.973
C=CCOC(Cn1ccnc1)c1ccc(Cl)cc1Cl (stereo unspecified) [Enilconazole] (20 µM)	1.13
COc1cc(N)cn[n+]1-c1ccccc1 [Amezinium metilsulfate] (20 µM)	0.995
Cn1nnc2c(C(N)=O)ncn2c1=O [Temozolomide] (20 µM)	0.998
CC(CCc1ccc(O)cc1)NCCc1ccc(O)c(O)c1 (stereo unspecified) [Dobutamine hydrochloride] (20 µM)	0.973
Cc1ncc(CO)c(CO)c1O [Pyridoxine hydrochloride] (20 µM)	1.02
c1cnc(N2CCN(Cc3ccc4c(c3)OCO4)CC2)nc1 [Piribedil] (20 µM)	0.996
Cc1cnc(C(=O)O)c[n+]1[O-] [Acipimox] (20 µM)	1.03
Cc1ncc([N+](=O)[O-])n1CC(C)O (stereo unspecified) [Secnidazole] (20 µM)	1.02
O=C1O[C@H]([C@@H](O)CO)C(O)=C1O [Ascorbic acid] (20 µM)	1.04
Clc1cc(Cl)c(OCC#CI)cc1Cl [Haloprogin] (20 µM)	0.987
CNCCCC1c2ccccc2C=Cc2ccccc21 [Protriptyline hydrochloride] (20 µM)	0.998
Cc1ccc(S(=O)(=O)NC(=O)NN2CCCCCC2)cc1 [Tolazamide] (20 µM)	1.02
COc1cc(C(=O)OCCCN2CCCN(CCCOC(=O)c3cc(OC)c(OC)c(OC)c3)CC2)cc(OC)c1OC [Dilazep dihydrochloride] (20 µM)	1.01
CCCc1cc(=O)[nH]c(=S)[nH]1 [Propylthiouracil] (20 µM)	0.995
Fc1ccc(C(c2ccc(F)cc2)N2CCN(C/C=C/c3ccccc3)CC2)cc1 [Flunarizine dihydrochloride] (20 µM)	1.04
NS(=O)(=O)c1cc(C(=O)O)cc(N2CCCC2)c1Oc1ccccc1 [Piretanide] (20 µM)	1.08
C#C[C@]1(OC(C)=O)CC[C@H]2[C@@H]3CCC4=CC(=NO)CC[C@@H]4[C@H]3CC[C@@]21CC (mixture of isomers) [Norgestimate] (20 µM)	0.993
CCN(CC)C(=O)Nc1ccc(OCC(O)CNC(C)(C)C)c(C(C)=O)c1 (stereo unspecified) [Celiprolol hydrochloride] (20 µM)	0.988
Cc1ccc(=O)n(-c2ccccc2)c1 [Pirfenidone] (20 µM)	0.981
COc1nc(C)nc(Cl)c1NC1=NCCN1 [Moxonidine] (20 µM)	0.991
CN[C@H]1CC[C@@H](c2ccc(Cl)c(Cl)c2)c2ccccc21 [Sertraline] (20 µM)	0.996
CC[C@H](C)[C@H](NC(=O)[C@H](Cc1ccc(O)cc1)NC(=O)[C@@H](NC(=O)[C@H](CCCN=C(N)N)NC(=O)[C@@H](N)CC(=O)O)C(C)C)C(=O)N[C@@H](Cc1cnc[nH]1)C(=O)N1CCC[C@H]1C(=O)N[C@@H](Cc1ccccc1)C(=O)O [Angiotensin II (Human) Trifluoroacetic acid salt] (20 µM)	0.994
COC(=O)Nc1nc2cc([S+]([O-])c3ccccc3)ccc2[nH]1 (stereo unspecified) [Oxfendazole] (20 µM)	1.04
N[C@@H]1CCCCN(c2c(F)cc3c(=O)c(C(=O)O)cn(C4CC4)c3c2Cl)C1 [Besifloxacin hydrochloride] (20 µM)	0.988
COc1c(N2CCNC(C)C2)c(F)cc2c(=O)c(C(=O)O)cn(C3CC3)c12 (stereo unspecified) [Gatifloxacin] (20 µM)	0.97
CO/N=C(\C(=O)N[C@@H]1C(=O)N2C(C(=O)[O-])=C(C[n+]3ccn4ncccc43)CS[C@H]12)c1nsc(N)n1 [Cefozopran hydrochloride] (20 µM)	1.05

* * *

In this section we review reported fold change of Tryptamine concentration values for a set of compounds.
tested on: Ruminococcus gnavus DSM 108212; test: fold change of Tryptamine concentration vs plate DMSO controls (fold change (ratio)); higher = more amine produced, active = hit call of the paper (significant change in both replicates, either direction); conditions: incubation time: 27 h, anaerobic, 37 °C
Structures can show the parent of a compound that is named as a salt.

compound	fold change of Tryptamine concentration
COCCCOc1cc(C[C@@H](C[C@H](N)[C@@H](O)C[C@H](C(=O)NCC(C)(C)C(N)=O)C(C)C)C(C)C)ccc1OC [Aliskiren hemifumarate] (20 µM)	1.04
CCCNC(C)C(=O)Nc1ccccc1C (centres undefined) [Prilocaine hydrochloride] (20 µM)	1.02
OC(CCCN1CCCCC1)(c1ccccc1)c1ccccc1 [Diphenidol hydrochloride] (20 µM)	0.963
Nc1ncnc2c1ncn2[C@@H]1O[C@H](COP(=O)(O)O)[C@@H](O)[C@H]1O [5'-Adenylic acid] (50 µM)	1.01
O=C(Oc1ccccc1)n1c(C(F)(F)F)nc2cc(Cl)c(Cl)cc21 (20 µM)	0.875
CCOC(=O)c1ccc(C#Cc2ccc3c(c2)C(C)(C)CCS3)nc1 [Tazarotene] (20 µM)	1.22
O=C(O)c1ccccc1OP(=O)(O)O [Fosfosal] (20 µM)	1.03
CC(=O)OCC(=O)[C@@]1(O)CC[C@H]2[C@@H]3CCC4=CC(=O)C=C[C@]4(C)[C@@]3(Cl)[C@@H](Cl)C[C@@]21C [Dichlorisone acetate] (20 µM)	1.01
CCOc1cc(CC(=O)N[C@@H](CC(C)C)c2ccccc2N2CCCCC2)ccc1C(=O)O [Repaglinide] (20 µM)	1.09
CC(C)[N+](C)(CCOC(=O)C1c2ccccc2Oc2ccccc21)C(C)C [Propantheline bromide] (20 µM)	0.96
O=c1[nH]cnc2c1ncn2[C@@H]1O[C@H](CO)[C@@H](O)[C@H]1O [Inosine] (20 µM)	0.997
O=C1c2cccc(O)c2C(=O)c2c(O)cccc21 [Danthron] (20 µM)	1
CC(/C=C1\SC(=S)N(CC(=O)O)C1=O)=C\c1ccccc1 [Epalrestat] (20 µM)	1.16
COc1ccc(C(Cl)=C(c2ccc(OC)cc2)c2ccc(OC)cc2)cc1 [Chlorotrianisene] (20 µM)	1.06
CCN[C@H]1C[C@H](C)S(=O)(=O)c2sc(S(N)(=O)=O)cc21 [Dorzolamide hydrochloride] (20 µM)	0.977
CC(C)NCC(O)c1ccc(NS(C)(=O)=O)cc1 (centres undefined) [Sotalol hydrochloride] (20 µM)	1.18
COCCOC(=O)C1=C(C)NC(C)=C(C(=O)OC/C=C/c2ccccc2)C1c1cccc([N+](=O)[O-])c1 (centres undefined) [Cilnidipine] (20 µM)	0.945
Oc1ccc2ccccc2c1N=Nc1ccccc1 [Sudan I (1-phenylazo-2-hydroxynaphthalene)] (20 µM)	1.04
CN1c2cc(O)c(N=NC(N)=O)cc2CC1S(=O)(=O)O (centres undefined) [Carbazochrome sodium sulfonate] (20 µM)	1.08
CN(C)CCOC1=Cc2ccccc2Sc2ccc(Cl)cc21 [Zotepine] (20 µM)	0.902
O=C(O)/C=C/c1ccc(Cn2ccnc2)cc1 [Ozagrel hydrochloride] (20 µM)	1.04
CCCC1O[C@@H]2C[C@H]3[C@@H]4CCC5=CC(=O)C=C[C@]5(C)[C@H]4[C@@H](O)C[C@]3(C)[C@]2(C(=O)CO)O1 (some centres undefined) [Budesonide] (20 µM)	0.998
CN(C)C/C=C(/c1ccc(Br)cc1)c1cccnc1 [Zimelidine dihydrochloride monohydrate] (20 µM)	0.987
Cc1ccc(S(=O)(=O)NC(=O)NN2CCCCCC2)cc1 [Tolazamide] (20 µM)	1.14
COc1cc(N)c(Cl)cc1C(=O)NC1CCN(CCCOc2ccc(F)cc2)CC1OC (centres undefined) [Cisapride] (20 µM)	0.922
CC/C=C(\C(=O)N[C@@H]1C(=O)N2C(C(=O)OCOC(=O)C(C)(C)C)=C(COC(N)=O)CS[C@H]12)c1csc(N)n1 [Cefcapene pivoxil hydrochloride monohydrate] (20 µM)	1.02
COCC(=O)O[C@]1(CCN(C)CCCc2nc3ccccc3[nH]2)CCc2cc(F)ccc2[C@@H]1C(C)C [Mibefradil hydrochloride] (20 µM)	0.925
CS(=O)(=O)c1ccc([C@@H](O)[C@@H](CF)NC(=O)C(Cl)Cl)cc1 [Florfenicol] (20 µM)	0.122
C=C1c2cccc(O)c2C(O)=C2C(=O)[C@]3(O)C(O)=C(C(N)=O)C(=O)[C@@H](N(C)C)[C@@H]3[C@@H](O)[C@H]12 [Methacycline hydrochloride] (20 µM)	0.461
